Target: IgE on basophils of ragweed allergic patients
Assay: cell-based or functional assay
outcome measure: HR40 (concentration required to induce 40% histamine release), patient one (µg/mL)
Please state the figure in µg/mL; there is no need to write the unit.

## Task # return recorded HR40 (concentration required to induce 40% histamine release), patient one for input ragweed allergen Amb a 1 (protein, UniProt P27759 26-396, looked up) AEDLQEILPVNETRRLTTSGAYNIIDGCWRGKADWAENRKALADCAQGFGKGTVGGKDGDIYTVTSELDDDVANPKEGTLRFGAAQNRPLWIIFERDMVIRLDKEMVVNSDKTIDGRGAKVEIINAGFTLNGVKNVIIHNINMHDVKVNPGGLIKSNDGPAAPRAGSDGDAISISGSSQIWIDHCSLSKSVDGLVDAKLGTTRLTVSNSLFTQHQFVLLFGAGDENIEDRGMLATVAFNTFTDNVDQRMPRCRHGFFQVVNNNYDKWGSYAIGGSASPTILSQGNRFCAPDERSKKNVLGRHGEAAAESMKWNWRTNKDVLENGAIFVASGVDPVLTPEQSAGMIPAEPGESALSLTSSAGVLSCQPGAPC
## Result 0.0002
